In this section we review reported growth values for a set of molecules.
# Test system: HCT-15 colon
# PROTOCOL_SUMMARY: NCI-60 one-dose screen, 48 h (100 = growth as untreated, 0 = no growth, -100 = all killed)
# CONDITION_DETAILS: 10 µM
This is part of a sample that, as a whole, favours compounds with a hit. Of some 83,000 tested, about 20% had one in any assay.

MOLECULE	UNITS	growth
O=C(c1ccc(F)cc1)C(c1c[nH]c2ccccc12)c1c[nH]c2ccccc12	%	7.29
Cn1cc(-c2nc(N)nnc2-c2c[nH]c3ccccc23)c2cc(Br)cnc21	%	10.2
CCOC(=O)C1=C(N)N(c2ccc(C)cc2)C2=C(C(=O)CC(C)(C)C2)C1c1ccccc1Br (stereo not drawn)	%	58.4
Cc1ccc2sc3c(c2c1)Oc1nc[nH]c(=O)c1C3c1cccc(F)c1 (stereo not drawn)	%	92.6
O=C(Nc1ccc(OCc2ccc(Cl)cc2)cc1)Nc1ccc(Cl)c(C(F)(F)F)c1	%	9.07
Cc1ccc(S(=O)(=O)N2CCN(S(=O)(=O)c3oc(-c4ccccc4)nc3C#N)CC2)cc1	%	82.5
Cn1cc(/C=C(/SS/C(=C/c2cn(C)c3cccc(C(=O)O)c23)C(=O)O)C(=O)O)c2c(C(=O)O)cccc21	%	99.4
COc1cc2oc(-c3cccc(C(=O)Nc4ccc(Cl)cc4)c3)cc(=O)c2c(OCCNC(=O)[C@@H](N)CO)c1OC	%	83
O=C(CSc1nc2ccccc2c(=O)n1-c1ccc(Cl)cc1)Nc1ccc(-c2nc3ccc([N+](=O)[O-])cc3[nH]2)cc1	%	56.3
Cc1ccc2c(c1)C(=O)/C(=C/c1ccc([N+](=O)[O-])cc1)S2	%	96.2
O=C(Nc1ccc(Oc2ncnc3scc(Nc4n[nH]c(=S)s4)c23)cc1)C1(C(=O)Nc2cccc(C(F)(F)F)c2)CC1	%	95.4
COc1ccc(Cc2nn(CC(=O)N/N=C/c3ccc(Br)cc3)c(=O)c3c(C)noc23)cc1	%	63.8
Cc1cc(N=C2NC(=O)/C(=C/c3cc(C(C)(C)C)c(O)c(C(C)(C)C)c3)S2)n[nH]1	%	6.98
COc1ccc2[nH]cc(-c3nc(N)nnc3-c3cn(C)c4ncc(Br)cc34)c2c1	%	12.3
CC1(C)CC[C@]2(C(=O)O)CC[C@]3(C)C(=CCC4[C@@]5(C)C[C@@H](O)[C@@H]6OC(c7cccc(F)c7)OC[C@@]6(C)C5CC[C@]43C)C2C1 (stereo partly drawn)	%	23
COc1cccc(C(=O)CSc2nc(-c3ccc(OCc4ccccc4)c(OC)c3)c(C#N)c(=O)[nH]2)c1	%	92.8
COc1ccc(C2c3sc4ccc(C)cc4c3Oc3nc(N)nc(N)c32)cc1 (stereo not drawn)	%	59.9
COc1ccc(-n2c(SCC(=O)NNS(=O)(=O)c3ccccc3)nc3ccc(Cl)cc3c2=O)cc1	%	92
